Would you mind telling me the reported potency estimated from few doses of each entry?
Test system: ACVR1B
Design: species or system human, MV4-11 + K-562 + COLO205 + SK-N-BE2 + OVCAR-8
Condition Parameters: read-out: apparent Kd; compound concentrations:100 nM and 1000 nM (sheet 'Samples'); n = 1

Give one value of potency estimated from few doses per listed compound.
1. Nc1nc(-c2ccccn2)c(-c2ccnc3ccccc23)s1 [GW548057X]
2. COc1ccc2nc(-c3cccc(C)n3)nc(Nc3ccncc3)c2c1
3. Cl.Cl.c1ccc(-c2cc3ccncc3cc2OC2CCNCC2)cc1.c1ccc(-c2cc3ccncc3cc2OC2CCNCC2)cc1 [GSK1122999D]
4. COc1ccc2cc(-c3c(-c4ccncc4)nc(-c4ccc(S(C)=O)cc4C)n3C)ccc2c1 (stereo not shown)

Ans.
1. 0.0762 µM
2. 0.0613 µM
3. 1.16 µM
4. 0.288 µM
